# TARGET UNDER TEST: S. pyogenes SKKanGAS, kanamycin survival, BacTiterGlo, 6 h
# ASSAY REMARKS: S. pyogenes SKKanGAS kanamycin growth inhibitors – SKKanGAS strain, luminescence, dose confirmation, streptokinase promoter inhibitor project, dose response (AID 1902);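 also: lower survival reflects blocked streptokinase promoter driving kanamycin resistance gene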
Active and inactive are the calls of the source.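 The calls were made as follows: active = EC50 no more than a set limit of log units above the highest dose; inactive = the rest.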
The reply should be one of these categories: active, inactive

Take a look at these entries with their results.
>>> print(df.to_string())
                                   compound  group_label
0  Cc1ccc(NC(=O)c2cc(N3C(=O)C=CC3=O)ccc2N2CCOCC2)cc1Cl       active
1  COC(=O)c1ccc(C(=O)OC)c(NC(=O)CN(C)Cc2cccc(Cl)c2Cl)c1       active
2            c1ccc(-n2c3ccccc3c3ccccc32)cc1       active
3  C/C(N)=C(/C#N)C(=O)CSc1nc2scc(-c3ccccc3)c2c(=O)n1C       active

Give the logged outcome of this assay for the following compound: CCOC(=O)c1ccc(Nc2nc(C)nc3c2nnn3Cc2ccccc2)cc1 active

Give the logged outcome of this assay for the following compound: N#CC1=C(N)OC2=C(CCc3ccccc32)C1c1ccccc1Cl (stereo not drawn) active

Give the logged outcome of this assay for the following compound: Cc1ccc(/C=C/C(=O)C2C(=O)c3ccccc3C2=O)cc1 active

Give the logged outcome of this assay for the following compound: CC(C)(C)c1ccc(C(=O)NCc2nnc(SCC(=O)NC3CCCC3)o2)cc1 inactive

These data points were gathered from PubChem BioAssay AID1902.
